- SYSTEM_TESTED: human LPA1 (Homo sapiens)
- Construct: expressed in transfected cells; host or cells: CHO-K1
- Sequence (Q92633 whole entry): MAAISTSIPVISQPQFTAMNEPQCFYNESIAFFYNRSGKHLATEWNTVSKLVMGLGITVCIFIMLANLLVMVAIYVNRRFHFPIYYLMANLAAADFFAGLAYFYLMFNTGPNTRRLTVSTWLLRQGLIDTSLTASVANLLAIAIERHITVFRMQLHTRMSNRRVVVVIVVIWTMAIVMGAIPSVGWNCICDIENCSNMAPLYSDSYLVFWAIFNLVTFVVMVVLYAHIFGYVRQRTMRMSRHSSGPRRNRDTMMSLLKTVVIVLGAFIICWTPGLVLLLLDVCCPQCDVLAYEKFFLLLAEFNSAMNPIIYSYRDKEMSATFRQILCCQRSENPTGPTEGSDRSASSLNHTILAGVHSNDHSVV
- METHOD_SUMMARY: In vitro LPA1 calcium flux antagonist assay - Bioduro protocol
- Assay type: cell-based
- CONDITION_DETAILS: CHO-K1 cells overexpressing human LPA1 and G15a; LPA challenge at EC80; calcium mobilization on FLIPR Tetra; read-out: IC50
- Protocol: In Vitro LPA1 Calcium Flux Antagonist Assay—Bioduro Protocol CHO-K1 cells overexpressing human LPA1 and G15a were seeded at a total volume of 20 μL (15000 cells/well) into Matrigel pre-coated 384-well plates (corning −3764) and incubated at 37° C. […] Calcium mobilization was measured on a FLIPR Tetra (MSD). […] Percentage inhibition is calculated using the following formula: % Inhibition=100%×(1−(mean RFU of test sample−mean RFU of DMSO)/(mean RFU of LPA control−mean RFU of DMSO)). […]
MEASURED_ENDPOINT: IC50 (µM)

MOLECULE: COc1cc(-c2ccc(NCCC(=O)O)cc2COCCc2ccccc2)cc(OC)c1C
RECORDED_VALUE: 3.48

MOLECULE: COc1cc(OC)nc(-c2c(C)cc(NC3(C(=O)O)CCOCC3)cc2COC2CCCC2)n1
RECORDED_VALUE: 1.32

MOLECULE: COc1cc(-c2ccc(CC3(C(=O)O)CCOCC3)cc2COC2CCCC2)c(Cl)c(OC)c1C
RECORDED_VALUE: 4.71

MOLECULE: COc1cc(-c2ccc(NC3(C(=O)O)CCOCC3)cc2COC2COc3ccccc32)cc(OC)c1C (single isomer, unassigned) [Compound 216]
RECORDED_VALUE: 0.0186

MOLECULE: Cc1c(OC2CC2)cccc1-c1ccc(NC2(C(=O)O)CCC(F)(F)CC2)cc1COC1CC1
RECORDED_VALUE: 0.00439

MOLECULE: COC(=O)N1CCC(Nc2ccc(-c3cc(OC)cc(OC)c3)c(COC3CCCC3)c2)(C(=O)O)CC1
RECORDED_VALUE: 0.112

MOLECULE: CCOc1c(C)ccc(-c2ccc(NC3(C(=O)O)CCOCC3)cc2COC2CC2)c1C
RECORDED_VALUE: 0.00593

MOLECULE: COc1cc(OC)c(F)c(-c2ccc(NC3(C(=O)O)CCOCC3)cc2COC2CCCC2)c1
RECORDED_VALUE: 0.0222

---

Reported pIC50 by item:
- SYSTEM_TESTED: human LPA1 (Homo sapiens)
- Construct: expressed in transfected cells; host or cells: CHO-K1
- METHOD_SUMMARY: In vitro LPA1 calcium flux antagonist assay - Bioduro protocol
- Type: cell-based
- CONDITION_DETAILS: CHO-K1 cells overexpressing human LPA1 and G15a; LPA challenge at EC80; calcium mobilization on FLIPR Tetra; read-out: IC50
pIC50: −log10 of the molar value.

MOL: CCc1nccc(-c2ccc(NC3(C(=O)O)CCOCC3)cc2COC2CC2)c1F
SYSTEM_TESTED: human LPA1 (Homo sapiens)
PREFIX_OPERATOR: =
pIC50: 7.07
//
MOL: COc1cc(-c2c(CC#N)cc(NC3(C(=O)O)CCOCC3)cc2COC2CCCC2)cc(OC)c1C
SYSTEM_TESTED: human LPA1 (Homo sapiens)
PREFIX_OPERATOR: =
pIC50: 6.04
//
MOL: COc1cc(-c2ccc(OC3(C(=O)O)CCOCC3)cc2COC2CCCC2)c(F)c(OC)c1C
SYSTEM_TESTED: human LPA1 (Homo sapiens)
PREFIX_OPERATOR: =
pIC50: 7.81
//
MOL: CCOc1cc(OC)cc(-c2ccc(C3(C(=O)O)CC3)cc2COC2CC2)c1F
SYSTEM_TESTED: human LPA1 (Homo sapiens)
PREFIX_OPERATOR: <
pIC50: 5.00
